- System: HCT-15 colon
- assay: NCI tumour cell line growth inhibition, 48 h
Entries and their TGI values follow.

{"columns": ["compound", "system", "TGI"],
 "data": [
  ["COC(=O)[C@@]12CCCC(=O)[C@@H]1[C@H]1CCC[C@H]12", "HCT-15 colon", "> 100 µM"],
  ["Cc1ccccc1C1=C/C(=C(\\SS/C(C(=O)c2ccc(OCC(=O)O)c(Cl)c2Cl)=C2\\C=C(c3ccccc3C)SS2)C(=O)c2ccc(OCC(=O)O)c(Cl)c2Cl)SS1", "HCT-15 colon", "59.4 µM"],
  ["O=C(O)CSc1ccc2[nH]c3ccccc3c(=O)c2c1", "HCT-15 colon", "> 100 µM"],
  ["Cc1occc(=O)c1O", "HCT-15 colon", "28.7 µM"],
  ["Cc1ccc2nc(-n3c(/C=C/c4ccccc4O)nc4ccccc4c3=O)sc2c1", "HCT-15 colon", "> 100 µM"],
  ["N#CC(/C(=N/N=C(N)N)C(=O)Nc1ccccc1[N+](=O)[O-])c1nc(-c2ccc([N+](=O)[O-])cc2)cs1 (centres undefined)", "HCT-15 colon", "> 100 µM"],
  ["CC(=O)N(C)c1ccc2ncccc2c1[N+](=O)[O-]", "HCT-15 colon", "> 100 µM"],
  ["S=C(NC/C(Br)=C/Br)Nc1cccc2ccccc12", "HCT-15 colon", "> 100 µM"],
  ["O=C(CN1CCN(c2ccccc2)CC1)c1ccc2[nH]c(=O)oc2c1", "HCT-15 colon", "> 100 µM"],
  ["CC1CN=C(N(C(=O)Nc2ccccc2)c2ccccc2)S1 (centres undefined)", "HCT-15 colon", "> 100 µM"],
  ["CC(C)(C)c1ccc2c(c1)C(O)(c1ccccc1)c1cc(C(C)(C)C)ccc1C2(O)C(F)(F)F (centres undefined)", "HCT-15 colon", "3.83 µM"],
  ["N#Cc1ccc(Oc2nc3ccccc3nc2C(=O)O)cc1", "HCT-15 colon", "> 100 µM"],
  ["COc1ccc2c(c1)OCC1c3cc(O)ccc3OC21 (centres undefined)", "HCT-15 colon", "> 100 µM"],
  ["N/C(=N/N=C/c1cc(Br)cc(Br)c1O)NO", "HCT-15 colon", "> 46.6 µM"]
]}

----------
- Tested on: UACC-257 melanoma
- assay: NCI tumour cell line growth inhibition, 48 h
Entries and their TGI values follow.

{"columns": ["molecule", "system", "TGI"],
 "data": [
  ["COc1ccc(N2C(=O)C3c4[nH]c5ccc(C)cc5c4C4CCC(c5ccccc5)CC4C3C2=O)cc1 (stereo unspecified)", "UACC-257 melanoma", "> 100 µM"],
  ["S=C(NC/C(Br)=C/Br)Nc1cccc2ccccc12", "UACC-257 melanoma", "> 100 µM"],
  ["CN1C(=O)/C(=C/c2c(Cl)[nH]c3ccccc23)c2ccccc21", "UACC-257 melanoma", "> 100 µM"],
  ["O=c1[nH]c2ccc(C(F)(F)F)cc2nc1Cc1ccccc1", "UACC-257 melanoma", "> 100 µM"],
  ["C=CCCCC(C#N)(c1ccccc1)N1CCCC1 (stereo unspecified)", "UACC-257 melanoma", "> 100 µM"],
  ["Cc1cc2cc3c(Cl)c(CCCl)c(C)nc3cc2c(Cl)c1CCCl", "UACC-257 melanoma", "34.8 µM"]
]}

----------
- Tested on: SK-MEL-28 melanoma
- assay: NCI tumour cell line growth inhibition, 48 h

{"columns": ["compound", "system", "TGI"],
 "data": [
  ["c1ccc2c(c1)c(N1CCCCC1)cc1nc3c(cc(N4CCCCC4)c4ccccc43)nc12", "SK-MEL-28 melanoma", "> 100 µM"],
  ["CCCCCC(=O)N[C@H]1CCc2cc(OC)c(OC)c(OC)c2-c2ccc(SC)c(=O)cc21", "SK-MEL-28 melanoma", "> 100 µM"],
  ["COc1ccc2c(c1)CN1C(=N2)CSC1c1c(Cl)cccc1[N+](=O)[O-] (stereo not given)", "SK-MEL-28 melanoma", "44.3 µM"],
  ["CC#CC(OCC)(OCC)OCC", "SK-MEL-28 melanoma", "> 100 µM"],
  ["CCOC(=O)C(Cc1ccc([N+](=O)[O-])cc1)NC(=O)CC1c2ccccc2-c2ccccc21 (stereo not given)", "SK-MEL-28 melanoma", "> 100 µM"]
]}

----------
Entries and their TGI values follow.
- Test system: SF-268 CNS
- assay: NCI tumour cell line growth inhibition, 48 h
readout name: TGI

{"columns": ["compound", "system", "measurement"],
 "data": [
  ["Cc1ccc(-c2cc3c(NC(=O)C4CC4)ncnc3o2)cc1", "SF-268 CNS", "> 25 µM"],
  ["N#C/C(=C/c1ccco1)C(=O)c1ccccc1", "SF-268 CNS", "> 100 µM"],
  ["CSCCC(NC(=O)CNC(=O)C(CC(=O)O)NC(=O)C(NC(=O)C(NC(=O)C(NC(=O)CNC(=O)C(CCC(N)=O)NC(=O)C(CCSC)NC(=O)C(CC(=O)O)NC(=O)C(C)NC(=O)C(C)NC(=O)C(NC(=O)C(CO)NC(=O)C(N)CC(C)C)C(C)O)C(C)C)C(C)C)C(C)O)C(=O)NC(C)C(=O)NC(CO)C(=O)NCC(=O)NC(CC(C)C)C(=O)NC(CC(=O)O)C(=O)NC(CCCCN)C(=O)NC(CC(=O)O)C(=O)NC(Cc1ccc(O)cc1)C(=O)NC(CC(C)C)C(=O)NC(CCCCN)C(=O)N1CCCC1C(=O)NC(CC(=O)O)C(=O)NC(CC(=O)O)C(=O)O (configuration not stated)", "SF-268 CNS", "> 82.5 µM"],
  ["CCCCCC(=O)N[C@H]1CCc2cc(OC)c(OC)c(OC)c2-c2ccc(SC)c(=O)cc21", "SF-268 CNS", "24.1 µM"],
  ["CC1=NN(c2nc(N)nc(COCc3nc(N)nc(N4N=C(C)CC4(C)C)n3)n2)C(C)(C)C1", "SF-268 CNS", "> 100 µM"],
  ["O=C(Nc1ccccc1)c1cc(S(=O)(=O)Nc2nc3ncccc3[nH]2)c(SSc2cc(Cl)c(C(=O)Nc3ccccc3)cc2S(=O)(=O)Nc2nc3ncccc3[nH]2)cc1Cl", "SF-268 CNS", "> 100 µM"],
  ["CCCCCCCCCCCCCCCCCCNc1ccn(C2OC(CO)C(OP(=O)(O)OCC(COP(=O)(O)OCC3OC(n4cc(F)c(NCCCCCCCCCCCCCCCCCC)nc4=O)CC3O)OC(=O)CCCCCCCCCCCCCCC)C2O)c(=O)n1 (configuration not stated)", "SF-268 CNS", "> 100 µM"],
  ["Cc1ccc(S(=O)(=O)NC2C(=O)c3ccccc3C(=O)C2n2ccnc2)cc1 (configuration not stated)", "SF-268 CNS", "> 100 µM"],
  ["Cc1c(C(=O)O)nc(/C=C/C(=O)O)[nH]c1=O", "SF-268 CNS", "> 100 µM"],
  ["COc1ccc(C(=O)n2nc(/C=C/c3ccc(O)c(OC)c3)cc2/C=C/c2ccc(O)c(OC)c2)cc1", "SF-268 CNS", "8.42 µM"],
  ["CCOC(=O)C1C(=O)CC(O)(c2ccccc2)C(C(=O)OCC)C1c1ccc(N(C)C)cc1 (configuration not stated)", "SF-268 CNS", "> 93.5 µM"],
  ["CCCCCC(/C=C/C1CCC(=O)C1)OCOCCOC (configuration not stated)", "SF-268 CNS", "> 71.7 µM"],
  ["CC1=C(C(=O)NNC(=O)c2ccccc2)CC(C(=O)NNC(=O)c2ccccc2)=C(C)N1", "SF-268 CNS", "> 100 µM"],
  ["Cc1ccc(Nc2nc(C)c(C(=O)CC(=O)C(=O)Nc3ccc(Cl)cc3)s2)cc1", "SF-268 CNS", "> 100 µM"],
  ["COc1ccc(N=Nc2c(O)ccc3ccccc23)cc1", "SF-268 CNS", "37.7 µM"],
  ["CCN(CC)CCNc1ccc2ncn3c4ccccc4c(=O)c1c23", "SF-268 CNS", "18.7 µM"],
  ["CCCN1C(=O)/C(=C/c2cccc(O)c2)SC1=Nc1ccccc1", "SF-268 CNS", "57.3 µM"]
]}

----------
- Tested on: SK-MEL-28 melanoma
- assay: NCI tumour cell line growth inhibition, 48 h

{"columns": ["compound", "system", "TGI"],
 "data": [
  ["COc1ccc(/C=C2\\N=C(SC)N(C)C2=O)cc1", "SK-MEL-28 melanoma", "> 100 µM"],
  ["O=C(CCN1CCCCC1)Nc1ccc2sc3ccccc3c(=O)c2n1", "SK-MEL-28 melanoma", "33.8 µM"],
  ["N#CC(C#N)N=Nc1ccc(-c2nc3ccccc3[nH]2)cc1", "SK-MEL-28 melanoma", "52 µM"],
  ["CC(C)=CCC/C(C)=C\\CC/C(C)=C/CO", "SK-MEL-28 melanoma", "> 100 µM"],
  ["CNC(=S)N/N=C(\\C)c1cc(OC)ccc1O", "SK-MEL-28 melanoma", "> 100 µM"],
  ["COC(=O)C1CCC(NC(=O)c2csc([C@@H](C[C@H](C(C)C)N(C)C(=O)[C@@H](NC(=O)[C@H]3CCCCN3C)C(C)C)OC(C)=O)n2)CC1 (stereo partly specified)", "SK-MEL-28 melanoma", "> 33.3 µM"]
]}

Each recorded value in this set is attributed to PubChem BioAssay (NCI).
